- Tested on: kochia (Kochia scoparia)
- assayText: Test B pre-/postemergence plant response
- Format: in vivo
- conditionDetails: Postemergence, 31 g ai/ha; 0 to 100 scale (0 no effect, 100 complete control)
Binarize Plant response rating, Kochia at 40; below is label 1, at or above is label 0.

Data request: Plant response rating, Kochia under 40? Item: CC1(C)CC(=O)C(C(=O)c2cnc(-c3ccccc3)n(-c3ccccc3)c2=O)=C(O)C1 [Compound 225]
Data returned: label 1

Data request: Item CCCn1c(-c2cccc(Br)c2)ncc(C(=O)C2=C(O)CCCC2=O)c1=O [Compound 141] : Plant response rating, Kochia beneath 40, strictly?
Data returned: label 1

Data request: # check: Plant response rating, Kochia < 40 for O=C1CCCC(O)=C1C(=O)c1cnc(-c2ccccc2)n(C2CCCC2)c1=O [Compound 131]
Data returned: label 1

Data request: Given the entry CCCn1c(-c2cccc(C(F)(F)F)c2)ncc(C(=O)C2=C(O)CCCC2=O)c1=O [Compound 155] , would its reported Plant response rating, Kochia be below 40?
Data returned: label 1

Data request: Quick check: Plant response rating, Kochia of CCCn1c(-c2cc(F)cc(F)c2)ncc(C(=O)C2=C(O)CCCC2=O)c1=O [Compound 152] under 40?
Data returned: label 1

Data request: Hello, is Plant response rating, Kochia of the following compound strictly smaller than 40? COCCn1c(-c2ccsc2)ncc(C(=O)C2=C(O)C3CCC(C3)C2=O)c1=O (centres unmarked) [Compound 228]
Data returned: label 0

Data request: For CCCCn1c(-c2cccc(F)c2)ncc(C(=O)C2=C(O)C3CCC(C3)C2=O)c1=O (centres unmarked) [Compound 237] , is the recorded Plant response rating, Kochia below the cut-off of 40?
Data returned: label 0

Data request: Answer whether the compound O=C1CCCC(O)=C1C(=O)c1cnc(-c2cccs2)n(C2CCCCC2)c1=O [Compound 189] has Plant response rating, Kochia strictly less than 40
Data returned: label 0

Data request: Here's an entry: COCCn1c(-c2cccc(C)c2)ncc(C(=O)C2=C(O)C3CCC(C3)C2=O)c1=O (centres unmarked) [Compound 233] . Is its Plant response rating, Kochia below 40?
Data returned: label 0

Hello, the source for this data is patent US8952024B2, in case you need it.
